# Test Description: Antiproliferative activity against rat HSC-T6 cells after 48 hrs by MTT assay
# Format: functional, cell-based
# Experimental Parameters: Rattus norvegicus, HSC-T6, 48 h
Class assignment keyed on IC50, ranges c1 (below 20 µM), c2 (20 µM to below 60 µM), c3 (60 µM or more)

Query: Which class is correct for the following compound? `COc1c(O)cc2ccc3cc(O)ccc3c2c1OC`
Response: c3

Query: Place this compound in its band: `COc1c(OC)c2cc(O)cc(OC)c2c2c(O)cccc12`
Response: c3

Query: Sort `COc1cc2cc(O)c(O)c(OC)c2c2c(O)cccc12` into one of the categories.
Response: c1

Query: Class for `COc1ccc2c(c1)CCc1c(-c3c(O)c(OC)c(OC)c4c3CCc3cc(OC)ccc3-4)c(O)c(OC)c(OC)c1-2` ?
Response: c3

Query: Assign a category based on measured IC50 for `COc1ccc2c(c1)CCc1cc(O)c(OC)c(OC)c1-2` and give only the class name.
Response: c3

Query: Which bin, given its IC50, does `COC1=CC(=O)c2ccc3cc(OC)cc(O)c3c2C1=O` occupy?
Response: c1

Query: Classify this compound: `COc1ccc2c(ccc3cc(OC)c(O)c(OC)c32)c1`
Response: c3

Query: The entry to classify is O=C(O[C@@H]1Cc2c(O)cc(O)cc2O[C@@H]1c1cc(O)c(O)c(O)c1)c1cc(O)c(O)c(O)c1 [EPIGALOCATECHIN GALLATE] ; which class holds it?
Response: c1

Query: Hello team, could you let me know which band the following compound falls into: `COc1cc(O)c2c(c1)CCc1cccc(O)c1-2`
Response: c3

Query: Lab note: which band did `COc1ccc2c(c1O)CCc1cc(O)c(OC)c(OC)c1-2` land in?
Response: c2

Query: Please classify: `COc1c(O)cc2c(c1OC)-c1ccc(O)cc1CC2`
Response: c3

Query: Into which category would you place `COc1ccc2c(ccc3cc(O)c(OC)c(OC)c32)c1O` ?
Response: c2

Query: State the class of the compound shown: `COc1c(O)c(O)cc2ccc3cccc(O)c3c12`
Response: c1

Query: Which category does the recorded IC50 put `COc1cc2ccc3cccc(O)c3c2c(OC)c1O` in?
Response: c2

Query: Categorize the following entry: `COc1c(O)cc2ccc3cccc(O)c3c2c1OC`
Response: c3

Query: Please indicate the class for `COc1ccc2c(c1)CCc1cc(OC)c(O)c(OC)c1-2` based on its IC50.
Response: c3

Query: Which class holds `COc1cc2c(c(O)c1OC)-c1ccc(O)cc1CC2` ?
Response: c3
